Ref: ChEMBL document CHEMBL3137667

- condition: human
endpoint-name: Hepatotoxicity (steatosis)

molecule=CNCCCC12CCC(c3ccccc31)c1ccccc12 endpoint_name="Hepatotoxicity (steatosis)" observed_result=0
molecule="CC(C)NCC(O)c1ccc(NS(C)(=O)=O)cc1 (stereo not drawn)" endpoint_name="Hepatotoxicity (steatosis)" observed_result=0
molecule=NCCCNc1ccc2c3c(nn2CCNCCO)-c2c(O)ccc(O)c2C(=O)c13 endpoint_name="Hepatotoxicity (steatosis)" observed_result=0
molecule=CC(C)(C)NC(=O)[C@@H]1CN(Cc2cccnc2)CCN1C[C@@H](O)C[C@@H](Cc1ccccc1)C(=O)N[C@H]1c2ccccc2C[C@H]1O.O endpoint_name="Hepatotoxicity (steatosis)" observed_result=3
molecule=NC(=O)N1C(=O)/C(=C(\O)c2cccs2)c2cc(Cl)ccc21 endpoint_name="Hepatotoxicity (steatosis)" observed_result=0
molecule=CN(C)[C@@H]1C(O)=C(C(N)=O)C(=O)[C@@]2(O)C(O)=C3C(=O)c4c(O)cccc4[C@@](C)(O)[C@H]3C[C@@H]12 endpoint_name="Hepatotoxicity (steatosis)" observed_result=22
molecule="COc1cc(NC(C)CCCN)c2ncccc2c1 (stereo not drawn)" endpoint_name="Hepatotoxicity (steatosis)" observed_result=0
molecule=NC[C@@H]1CC[C@@H](N)[C@@H](O[C@H]2[C@H](O)[C@@H](O[C@H]3O[C@H](CO)[C@@H](O)[C@H](N)[C@H]3O)[C@H](N)C[C@@H]2N)O1 endpoint_name="Hepatotoxicity (steatosis)" observed_result=0

====

- condition: human
endpoint-name: Hepatotoxicity (steatosis)

compound="Nc1cc([As]2[As](c3ccc(O)c(N)c3)[As](c3ccc(O)c(N)c3)[As](c3ccc(O)c(N)c3)[As]2c2ccc(O)c(N)c2)ccc1O.Nc1cc([As]2[As](c3ccc(O)c(N)c3)[As]2c2ccc(O)c(N)c2)ccc1O (centres undefined)" endpoint_name="Hepatotoxicity (steatosis)" observed_result=0
compound="CCN(CC)CCNC(=O)c1cc(Cl)c(N)cc1OC [METOCLOPRAMIDE]" endpoint_name="Hepatotoxicity (steatosis)" observed_result=0
compound=CO[C@@]1(NC(=O)CSCC#N)C(=O)N2C(C(=O)O)=C(CSc3nnnn3C)CS[C@@H]21 endpoint_name="Hepatotoxicity (steatosis)" observed_result=0
compound=CN1CCN(CCCN2c3ccccc3Sc3ccccc32)CC1 endpoint_name="Hepatotoxicity (steatosis)" observed_result=0

====

- test-description: Highest frequency of moderate liver toxicity observed during clinical trials, expressed as a percentage. [column '% BIOL' in source]
- condition: human
endpoint-name: Hepatotoxicity (moderate) (%)

compound="Cc1nc(NS(=O)(=O)c2ccc(N)cc2)oc1C [SULFAMOXOLE]" endpoint_name="Hepatotoxicity (moderate)" endpoint_unit=% observed_result=0
compound="CN1[C@@H]2CC[C@H]1C[C@@H](OC(=O)c1c[nH]c3ccccc13)C2 [TROPISETRON]" endpoint_name="Hepatotoxicity (moderate)" endpoint_unit=% observed_result=40.9
compound="Cc1cc(C(=O)NCCc2ccc(S(=O)(=O)NC(=O)NN3CCCCCC3)cc2)no1 [GLISOXEPIDE]" endpoint_name="Hepatotoxicity (moderate)" endpoint_unit=% observed_result=0
compound="CCC(C)n1ncn(-c2ccc(N3CCN(c4ccc(OCC5COC(Cn6cncn6)(c6ccc(Cl)cc6Cl)O5)cc4)CC3)cc2)c1=O (stereo not given) [ITRACONAZOLE]" endpoint_name="Hepatotoxicity (moderate)" endpoint_unit=% observed_result=91.7
compound="[H]/N=C(\\N/C(=N/[H])NCCCCCCNC(=N)NC(=N)Nc1ccc(Cl)cc1)Nc1ccc(Cl)cc1 [CHLORHEXIDINE]" endpoint_name="Hepatotoxicity (moderate)" endpoint_unit=% observed_result=0
compound="O=C(O)C1N=C(c2ccccc2)c2cc(Cl)ccc2NC1=O (stereo not given) [CLORAZEPIC ACID]" endpoint_name="Hepatotoxicity (moderate)" endpoint_unit=% observed_result=0
compound="CCCCCN(C)CCC(O)(P(=O)(O)O)P(=O)(O)O [IBANDRONIC ACID]" endpoint_name="Hepatotoxicity (moderate)" endpoint_unit=% observed_result=0.6
compound="OCCN1CCN(CCCN2c3ccccc3C=Cc3ccccc32)CC1 [OPIPRAMOL]" endpoint_name="Hepatotoxicity (moderate)" endpoint_unit=% observed_result=0
compound="CC(=O)[C@@]1(O)CC[C@H]2[C@@H]3C=C(Cl)C4=CC(=O)[C@@H]5C[C@@H]5[C@]4(C)[C@H]3CC[C@@]21C [CYPROTERONE]" endpoint_name="Hepatotoxicity (moderate)" endpoint_unit=% observed_result=20
compound="Cc1c(OCC(F)(F)F)ccnc1C[S+]([O-])c1nc2ccccc2[nH]1 (stereo not given) [LANSOPRAZOLE]" endpoint_name="Hepatotoxicity (moderate)" endpoint_unit=% observed_result=10.5
compound="CC[C@H]1OC(=O)[C@H](C)[C@@H](O[C@H]2C[C@@](C)(OC)[C@@H](O)[C@H](C)O2)[C@H](C)[C@@H](O[C@@H]2O[C@H](C)C[C@H](N(C)C)[C@H]2O)[C@](C)(O)C[C@@H](C)[C@@H]2N[C@@H](COCCOC)O[C@H]([C@H]2C)[C@]1(C)O [DIRITHROMYCIN]" endpoint_name="Hepatotoxicity (moderate)" endpoint_unit=% observed_result=28.6
compound="CCCC[C@@H]1CC(=O)[C@]2(O)O[C@@H]3[C@@H](NC)[C@@H](O)[C@@H](NC)[C@H](O)[C@H]3O[C@@H]2O1 [TROSPECTOMYCIN]" endpoint_name="Hepatotoxicity (moderate)" endpoint_unit=% observed_result=33.3
compound="CC/C(=C(/CC)c1ccc(O)cc1)c1ccc(O)cc1 [DIETHYLSTILBESTROL]" endpoint_name="Hepatotoxicity (moderate)" endpoint_unit=% observed_result=19
compound="Sc1ncnc2[nH]ncc12 [TISOPURINE]" endpoint_name="Hepatotoxicity (moderate)" endpoint_unit=% observed_result=0
compound="CCC(=O)[C@@]1(C)CC[C@H]2[C@@H]3CCC4=CC(=O)CCC4=C3CC[C@@]21C [PROMEGESTONE]" endpoint_name="Hepatotoxicity (moderate)" endpoint_unit=% observed_result=0

====

- condition: human, serum
Listed compounds paired with reported Hepatotoxicity (moderate)
endpoint-name: Hepatotoxicity (moderate)

compound="C[C@H](CS)C(=O)N1CCC[C@H]1C(=O)O [CAPTOPRIL]" endpoint_name="Hepatotoxicity (moderate)" observed_result=5
compound="CC(=O)CC(c1ccccc1)c1c(O)c2ccccc2oc1=O (stereo not given) [WARFARIN]" endpoint_name="Hepatotoxicity (moderate)" observed_result=2
compound="CO/N=C(\\C(=O)N[C@@H]1C(=O)N2C(C(=O)[O-])=C(C[n+]3ccn4ncccc43)CS[C@H]12)c1nsc(N)n1 [CEFOZOPRAN]" endpoint_name="Hepatotoxicity (moderate)" observed_result=68
compound=CCOC(=O)[C@H](CCc1ccccc1)N[C@@H](C)C(=O)N1CCC[C@H]1C(=O)O endpoint_name="Hepatotoxicity (moderate)" observed_result=9
compound="COc1c(C)c2c(c(O)c1C/C=C(\\C)CCC(=O)OCCN1CCOCC1)C(=O)OC2 [MYCOPHENOLATE MOFETIL]" endpoint_name="Hepatotoxicity (moderate)" observed_result=3
compound="CCCCc1nc(Cl)c(CO)n1Cc1ccc(-c2ccccc2-c2nn[nH]n2)cc1 [LOSARTAN]" endpoint_name="Hepatotoxicity (moderate)" observed_result=11
compound="NS(=O)(=O)c1cc2c(cc1Cl)NCNS2(=O)=O [HYDROCHLOROTHIAZIDE]" endpoint_name="Hepatotoxicity (moderate)" observed_result=2
compound=CC(=O)OCC1=C(C(=O)O)N2C(=O)[C@@H](NC(=O)CC#N)[C@H]2SC1 endpoint_name="Hepatotoxicity (moderate)" observed_result=1
compound="CC(=O)Nc1cc([As](=O)(O)O)ccc1O [ACETARSONE]" endpoint_name="Hepatotoxicity (moderate)" observed_result=0
compound="CC/C(=C(/c1ccc(OCCN(C)C)cc1)c1cccc(O)c1)c1ccccc1 [DROLOXIFENE]" endpoint_name="Hepatotoxicity (moderate)" observed_result=4
compound="O=C1c2c(O)ccc(O)c2C(=O)c2c(NCCNCCO)ccc(NCCNCCO)c21 [MITOXANTRONE]" endpoint_name="Hepatotoxicity (moderate)" observed_result=21
compound="COc1ccc(OC[C@H]2CN(C)CC[C@@H]2c2ccccc2)cc1 [FEMOXETINE]" endpoint_name="Hepatotoxicity (moderate)" observed_result=0
compound="COc1c(N2CCNC(C)C2)c(F)cc2c(=O)c(C(=O)O)cn(C3CC3)c12 (stereo not given) [GATIFLOXACIN]" endpoint_name="Hepatotoxicity (moderate)" observed_result=18
compound="Nc1ccc(C(=O)O)c(O)c1 [AMINOSALICYLIC ACID]" endpoint_name="Hepatotoxicity (moderate)" observed_result=6
compound=COc1cnc(NS(=O)(=O)c2ccc(N)cc2)nc1 endpoint_name="Hepatotoxicity (moderate)" observed_result=0
compound="COc1cc(Cc2cnc(N)nc2N)cc(OC)c1OC [TRIMETHOPRIM]" endpoint_name="Hepatotoxicity (moderate)" observed_result=1
compound="CN1C(=O)CN=C(c2ccccc2)c2cc(Cl)ccc21 [DIAZEPAM]" endpoint_name="Hepatotoxicity (moderate)" observed_result=1
compound="CCN(CC)CCNC(=O)c1cc(Cl)c(N)cc1OC [METOCLOPRAMIDE]" endpoint_name="Hepatotoxicity (moderate)" observed_result=2
compound=CCOC(=O)[C@H](CCc1ccccc1)N[C@@H](C)C(=O)N1Cc2ccccc2C[C@H]1C(=O)O endpoint_name="Hepatotoxicity (moderate)" observed_result=3
compound="O=NN(CCCl)C(=O)NC1CCCCC1 [LOMUSTINE]" endpoint_name="Hepatotoxicity (moderate)" observed_result=4
